A collection of compounds and their measured Kd
ASSAY_SYSTEM: FGFR4 (Homo sapiens (Human), UniProt P22455)
Sequence (P22455 22-802): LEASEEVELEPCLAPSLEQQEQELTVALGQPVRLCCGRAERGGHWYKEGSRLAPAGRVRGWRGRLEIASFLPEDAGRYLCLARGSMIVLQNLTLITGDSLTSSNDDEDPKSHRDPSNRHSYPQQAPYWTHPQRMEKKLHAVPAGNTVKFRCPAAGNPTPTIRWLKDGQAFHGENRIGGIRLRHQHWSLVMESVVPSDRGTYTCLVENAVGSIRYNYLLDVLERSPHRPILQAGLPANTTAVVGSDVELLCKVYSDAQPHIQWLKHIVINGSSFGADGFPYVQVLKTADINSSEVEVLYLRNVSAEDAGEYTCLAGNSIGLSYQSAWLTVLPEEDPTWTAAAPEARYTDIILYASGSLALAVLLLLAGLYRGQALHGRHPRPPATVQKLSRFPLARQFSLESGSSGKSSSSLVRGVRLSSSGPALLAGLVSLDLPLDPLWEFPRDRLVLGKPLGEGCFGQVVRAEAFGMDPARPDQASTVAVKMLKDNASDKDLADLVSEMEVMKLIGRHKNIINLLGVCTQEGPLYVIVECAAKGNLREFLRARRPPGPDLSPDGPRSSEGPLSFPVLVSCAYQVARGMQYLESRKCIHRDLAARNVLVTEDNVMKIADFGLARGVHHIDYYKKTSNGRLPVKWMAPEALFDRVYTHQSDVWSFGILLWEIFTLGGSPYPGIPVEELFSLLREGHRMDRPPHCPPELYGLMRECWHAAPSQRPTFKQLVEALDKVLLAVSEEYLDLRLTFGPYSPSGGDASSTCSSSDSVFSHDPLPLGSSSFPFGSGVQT
METHOD_NOTES: Kinase assay, binding constants (Kd), kinase-tagged T7 phage, qPCR

>  <ENTRY_SMILES>
C[C@@H](Oc1ccc2[nH]nc(-c3cnn(C4CCOCC4)c3)c2c1)c1c(Cl)cncc1Cl

>  <RESULT>
1 to 20 nM

$$$$
>  <ENTRY_SMILES>
C[C@@H](Oc1ccc2[nH]nc(-c3cnc(N4CC5(CN(CC(F)(F)F)C5)C4)c(C#N)c3)c2c1)c1c(Cl)cncc1Cl

>  <RESULT>
1 to 20 nM

$$$$
>  <ENTRY_SMILES>
C[C@@H](Oc1cc2c(-c3cnc(N4CC5(CCCS(=O)(=O)C5)C4)c(C#N)c3)n[nH]c2cc1F)c1c(Cl)cncc1Cl

>  <RESULT>
1 to 20 nM

$$$$
>  <ENTRY_SMILES>
C[C@@H](Oc1ccc2[nH]nc(-c3cnc(N4CCC4)c(C#N)c3)c2c1)c1c(Cl)cnc(F)c1Cl

>  <RESULT>
100 to 300 nM

$$$$

So for C[C@@H](Oc1ccc2[nH]nc(-c3cnc(N4CCC5(CCNC5=O)CC4)nc3)c2c1)c1c(Cl)cncc1Cl , the logged Kd turned out to be 1 to 20 nM

----------
A collection of molecules and their measured Kd
ASSAY_SYSTEM: FGFR4 (Homo sapiens (Human), UniProt P22455)
METHOD_NOTES: Kinase assay, binding constants (Kd), kinase-tagged T7 phage, qPCR

>  <ENTRY_SMILES>
C[C@@H](Oc1ccc2[nH]nc(-c3ccc(N4CC5(CNC5)C4)nc3)c2c1)c1cc(F)cc(F)c1

>  <ASSAY_SYSTEM>
FGFR4 (Homo sapiens (Human), UniProt P22455)

>  <Kd>
20 to 100 nM

$$$$
>  <ENTRY_SMILES>
COc1cc2[nH]nc(-c3cnc(N4CC[C@@H]4C)c(S(C)(=O)=O)c3)c2cc1O[C@H](C)c1c(Cl)cncc1Cl

>  <ASSAY_SYSTEM>
FGFR4 (Homo sapiens (Human), UniProt P22455)

>  <Kd>
1 to 20 nM

$$$$
>  <ENTRY_SMILES>
C[C@@H](Oc1ccc2[nH]nc(-c3ccc(N4CCN(S(C)(=O)=O)CC4=O)nc3)c2c1)c1c(Cl)cncc1Cl

>  <ASSAY_SYSTEM>
FGFR4 (Homo sapiens (Human), UniProt P22455)

>  <Kd>
1 to 20 nM

$$$$
>  <ENTRY_SMILES>
C[C@@H](Oc1ccc2[nH]nc(-c3cnc(N4CCC5(CC4)CCS(=O)(=O)C5)c(F)c3)c2c1)c1c(Cl)cncc1Cl

>  <ASSAY_SYSTEM>
FGFR4 (Homo sapiens (Human), UniProt P22455)

>  <Kd>
1 to 20 nM

$$$$
>  <ENTRY_SMILES>
C[C@@H](Oc1cc2c(-c3ccc(N4CC5(C4)CN(S(C)(=O)=O)C5)nc3)n[nH]c2cc1Cl)c1c(Cl)cncc1Cl

>  <ASSAY_SYSTEM>
FGFR4 (Homo sapiens (Human), UniProt P22455)

>  <Kd>
1 to 20 nM

$$$$

So for COc1cc2[nH]nc(-c3ccc(N4CC5(C4)CN(S(C)(=O)=O)C5)nc3)c2cc1O[C@@H](C)c1c(C)cnnc1C , the logged Kd turned out to be 100 to 300 nM

So for COC(=O)N1CCC2(CC1)CN(c1ncc(-c3n[nH]c4ccc(O[C@H](C)c5c(Cl)cncc5Cl)cc34)cn1)C2 , the logged Kd turned out to be 1 to 20 nM

So for Cc1ncc(Cl)c([C@@H](C)Oc2ccc3[nH]nc(-c4cnc(N5CC6(CCCS(=O)(=O)C6)C5)c(C#N)c4)c3c2)c1Cl , the logged Kd turned out to be 1 to 20 nM

So for C[C@@H](Oc1ccc2[nH]nc(-c3ccc(N4CC5(CCCNC5)C4)nc3)c2c1)c1c(Cl)cncc1Cl , the logged Kd turned out to be 1 to 20 nM

So for C[C@@H](Oc1ccc2[nH]nc(-c3ccc(N4CC5(CN(C(=O)C(F)(F)F)C5)C4)nc3)c2c1)c1c(Cl)cncc1Cl , the logged Kd turned out to be 1 to 20 nM

So for C[C@@H](Oc1ccc2[nH]nc(-c3ccc(F)nc3)c2c1)c1c(Cl)cncc1Cl , the logged Kd turned out to be 20 to 100 nM

----------
ASSAY_SYSTEM: FGFR1 (Homo sapiens (Human))
Sequence (P11362 22-822): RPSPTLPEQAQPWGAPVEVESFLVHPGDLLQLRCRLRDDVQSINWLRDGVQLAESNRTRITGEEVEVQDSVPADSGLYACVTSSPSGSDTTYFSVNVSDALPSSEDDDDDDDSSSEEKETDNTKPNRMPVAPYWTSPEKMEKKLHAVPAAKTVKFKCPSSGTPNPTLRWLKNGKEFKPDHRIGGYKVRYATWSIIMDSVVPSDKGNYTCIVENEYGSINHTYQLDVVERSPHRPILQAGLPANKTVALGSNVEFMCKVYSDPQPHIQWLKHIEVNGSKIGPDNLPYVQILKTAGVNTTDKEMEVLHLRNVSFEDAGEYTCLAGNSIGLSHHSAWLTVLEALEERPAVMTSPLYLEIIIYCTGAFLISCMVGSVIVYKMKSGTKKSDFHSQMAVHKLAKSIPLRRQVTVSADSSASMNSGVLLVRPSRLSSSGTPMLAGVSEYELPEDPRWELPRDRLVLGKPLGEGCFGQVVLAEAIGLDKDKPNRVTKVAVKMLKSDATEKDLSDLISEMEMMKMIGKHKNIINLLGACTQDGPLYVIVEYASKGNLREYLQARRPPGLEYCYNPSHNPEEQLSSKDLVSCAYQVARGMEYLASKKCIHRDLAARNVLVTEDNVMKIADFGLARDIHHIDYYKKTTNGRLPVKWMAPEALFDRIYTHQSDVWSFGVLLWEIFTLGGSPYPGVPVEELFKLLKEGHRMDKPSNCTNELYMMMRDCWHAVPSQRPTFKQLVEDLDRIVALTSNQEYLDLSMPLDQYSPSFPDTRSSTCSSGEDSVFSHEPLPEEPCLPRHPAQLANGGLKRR
METHOD_NOTES: Kinase assay, binding constants (Kd), kinase-tagged T7 phage, qPCR
Procedure: Kinase-tagged T7 phage strains were prepared in an E. coli host derived from the BL21 strain. E. coli were grown to log-phase and infected with T7 phage and incubated with shaking at 32° C. until lysis. The lysates were centrifuged and filtered to remove cell debris. […] Test compounds were prepared as 111λ stocks in 10000 DMS0. Kds were determined using an 11-point 3-fold compound dilution series with three DMSO control points. […] The kinase concentration in the eluates was measured by qPCR. […]
PARAMETER: Kd

Recorded Kd, per entry:
>  <COMPOUND>
Cc1cnnc(C)c1[C@@H](C)Oc1ccc2[nH]nc(-c3cnc(N4CCC[C@@H]4CO)c(C#N)c3)c2c1 [Example 335]

>  <RESULT>
1 to 20 nM

$$$$
>  <COMPOUND>
COc1cc2[nH]nc(-c3cnc(N4CC5(CCS(=O)(=O)C5)C4)c(C#N)c3)c2cc1O[C@H](C)c1c(Cl)cncc1Cl [Example 339]

>  <RESULT>
1 to 20 nM

$$$$
>  <COMPOUND>
C[C@@H](Oc1ccc2[nH]nc(-c3cnc(N4CC(C(F)F)C4)c(C#N)c3)c2c1)c1c(Cl)cncc1Cl [Example 345]

>  <RESULT>
> 300 nM

$$$$
>  <COMPOUND>
C[C@@H](Oc1cc2c(-c3cnc(N4CC(C)(C)C4)c(CN(C)C)c3)n[nH]c2cc1Cl)c1c(Cl)cncc1Cl [Example 371]

>  <RESULT>
> 300 nM

$$$$
>  <COMPOUND>
Cc1ncc(Cl)c([C@@H](C)Oc2ccc3[nH]nc(-c4ccc(N5CC6(CCC(O)C6)C5)nc4)c3c2)c1Cl (some centres unmarked) [Example 247]

>  <RESULT>
20 to 100 nM

$$$$
>  <COMPOUND>
C[C@@H](Oc1ccc2[nH]nc(-c3ccc(N4CCC5(CCCN5C)CC4)nc3)c2c1)c1c(Cl)cncc1Cl [Example 33]

>  <RESULT>
1 to 20 nM

$$$$

// compound Cc1cc(-c2n[nH]c3ccc(O[C@H](C)c4c(Cl)cnc(C)c4Cl)cc23)cnc1N1CC(CO)(CO)C1 [Example 234] , assay FGFR1 (Homo sapiens (Human)), Kd value: 100 to 300 nM

// compound C[C@@H](Oc1ccc2[nH]nc(-c3cnc(N4CC5(CCN(S(C)(=O)=O)C5)C4)nc3)c2c1)c1c(Cl)cncc1Cl [Example 157] , assay FGFR1 (Homo sapiens (Human)), Kd value: 20 to 100 nM

----------
A collection of molecules and their measured IC50
ASSAY_SYSTEM: FGFR3-BAIAP2L1 Ba/F3 cells (Homo sapiens, UniProt P22607)
Sequence (P22607 23-806 limits assumed, change not shown): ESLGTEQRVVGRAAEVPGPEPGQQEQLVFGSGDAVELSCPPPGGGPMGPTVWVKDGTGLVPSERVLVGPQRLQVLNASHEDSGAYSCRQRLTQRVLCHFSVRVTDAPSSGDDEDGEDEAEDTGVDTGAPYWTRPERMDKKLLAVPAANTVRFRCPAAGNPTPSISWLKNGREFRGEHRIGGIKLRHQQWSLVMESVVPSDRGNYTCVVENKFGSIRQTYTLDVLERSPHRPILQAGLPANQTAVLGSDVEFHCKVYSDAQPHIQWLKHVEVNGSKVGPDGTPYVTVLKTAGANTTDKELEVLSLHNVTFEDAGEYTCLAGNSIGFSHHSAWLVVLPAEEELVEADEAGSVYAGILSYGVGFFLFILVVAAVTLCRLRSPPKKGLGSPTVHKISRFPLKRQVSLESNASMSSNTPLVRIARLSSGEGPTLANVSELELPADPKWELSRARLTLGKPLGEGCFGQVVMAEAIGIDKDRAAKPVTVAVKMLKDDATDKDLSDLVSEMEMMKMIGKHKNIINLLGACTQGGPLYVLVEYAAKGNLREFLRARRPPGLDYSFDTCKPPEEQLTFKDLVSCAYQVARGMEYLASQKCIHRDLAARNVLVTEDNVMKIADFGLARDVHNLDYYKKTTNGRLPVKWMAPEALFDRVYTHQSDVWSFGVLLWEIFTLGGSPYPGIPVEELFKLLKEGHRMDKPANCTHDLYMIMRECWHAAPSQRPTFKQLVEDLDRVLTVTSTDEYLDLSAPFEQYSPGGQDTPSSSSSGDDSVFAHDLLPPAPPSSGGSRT
METHOD_NOTES: Ba/F3 cell viability assay (CellTiter-Glo 2.0), FGFR3-BAIAP2L1 Ba/F3
Assay type: cell-based
CONDITION_LABEL: read-out: Ba/F3 Cells FGFR3 (IC50 nM); FGFR3-BAIAP2L1 Ba/F3 cells, 48 hours, Cell Titer Glo 2.0

Recorded IC50, per entry:
>  <MOLECULE>
Cc1cncc(C)c1[C@H](C)Oc1ccc2[nH]nc(-c3ccc(N4CC5(C4)CN(S(C)(=O)=O)C5)nc3)c2c1 [Example 140]

>  <IC50>
100 to 300 nM

$$$$
>  <MOLECULE>
CCOC(=O)N1CC2(C1)CN(c1ncc(-c3n[nH]c4ccc(O[C@H](C)c5c(C)cnnc5C)cc34)cn1)C2 [Example 146]

>  <IC50>
100 to 300 nM

$$$$
>  <MOLECULE>
CCOC(=O)N1CCCC2(C1)CN(c1ncc(-c3n[nH]c4ccc(O[C@H](C)c5c(Cl)cncc5Cl)cc34)cn1)C2 [Example 131]

>  <IC50>
100 to 300 nM

$$$$
>  <MOLECULE>
C[C@@H](Oc1ccc2[nH]nc(-c3ccc(N4CCC5(CC4)C(=O)NCCN5C)nc3)c2c1)c1c(Cl)cncc1Cl [Example 34]

>  <IC50>
1 to 20 nM

$$$$

So for C[C@@H](Oc1ccc2[nH]nc(-c3ccc(N4CCNC5(CC5)C4)nc3)c2c1)c1c(Cl)cncc1Cl [Example 21] , the logged IC50 turned out to be 1 to 20 nM

So for C[C@@H](Oc1ccc2[nH]nc(-c3cnc(N4CCC5(CC4)CNC(=O)N5)nc3)c2c1)c1c(Cl)cncc1Cl [Example 53] , the logged IC50 turned out to be 20 to 100 nM

So for COC(=O)N1CCCC2(C1)CN(c1ncc(-c3n[nH]c4ccc(O[C@H](C)c5c(Cl)cncc5Cl)cc34)cn1)C2 [Example 138] , the logged IC50 turned out to be 20 to 100 nM
